B1: FBXO34 (parent)
chain: PRYREDPCKQCKKKYVKGDVSLCR

Variants of: B1
Assay: protein stability index of a GFP-peptide fusion (GPS, HEK-293T) (PSI 1-6); higher = more stable;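 also: lentivirally expressed fusions sorted by FACS into six bins by GFP to DsRed ratio, PSI derived from sequencing read proportions per bin multiplied by bin number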
Conditions: c terminus: a fixed tail appended
MEASURE: protein stability index

{"MONOMER_SEQUENCE": "VRYREDPCKQCKKKYVKGDVSLCR [P1V]", "TEST_RESULT": 2.22}
{"MONOMER_SEQUENCE": "PRYREDPCKQCKKRYVKGDVSLCR [K14R]", "TEST_RESULT": 2.88}
{"MONOMER_SEQUENCE": "PRYREDPCKQCKVKYVKGDVSLCR [K13V]", "TEST_RESULT": 2.59}
{"MONOMER_SEQUENCE": "PRYREDPCKQCKKKYVKGDKSLCR [V20K]", "TEST_RESULT": 3.07}
{"MONOMER_SEQUENCE": "PRYREDPCKQCKKKYVRGDVSLCR [K17R]", "TEST_RESULT": 2.59}
{"MONOMER_SEQUENCE": "PRYREDPCKQCKKKYVKGDVKLCR [S21K]", "TEST_RESULT": 2.87}
{"MONOMER_SEQUENCE": "PKYREDPCKQCKKKYVKGDVSLCR [R2K]", "TEST_RESULT": 2.52}
{"MONOMER_SEQUENCE": "PRYREDPCKQAKKKYVKGDVSLCR [C11A]", "TEST_RESULT": 3.23}
{"MONOMER_SEQUENCE": "PRYRVDPCKQCKKKYVKGDVSLCR [E5V]", "TEST_RESULT": 2.83}
{"MONOMER_SEQUENCE": "PRYREDPSKQCKKKYVKGDVSLCR [C8S]", "TEST_RESULT": 3.82}
{"MONOMER_SEQUENCE": "PRYREDPCKQCKKKYVKGDVSLCH [R24H]", "TEST_RESULT": 3.42}
{"MONOMER_SEQUENCE": "PRYREDPCKQCKKQYVKGDVSLCR [K14Q]", "TEST_RESULT": 2.59}
{"MONOMER_SEQUENCE": "PRYREDPCKQCKKKYVKGDVMLCR [S21M]", "TEST_RESULT": 2.51}
{"MONOMER_SEQUENCE": "PRYRPDPCKQCKKKYVKGDVSLCR [E5P]", "TEST_RESULT": 2.77}
{"MONOMER_SEQUENCE": "PRYREDPCKQCKKKDVKGDVSLCR [Y15D]", "TEST_RESULT": 3.06}

Data credit: the supplement of paper PMC10567573
